experimental.system: recombinant carbonic anhydrase IX (Homo sapiens)
Construct: Recombinant CAIX was expressed as described previously; made in house
assay.explanation: Determination of ligand KD by fluorescence polarization
Type: binding
protocol.conditions: 5 nM labeled ligand, 1 h room temperature, read-out: KD for fluorophore-linker-ligand complexes
recorded.endpoint: Kd (nM)
Answer with a number only, understood to be in nM.

Memo: NS(=O)(=O)c1ccc(C(=O)NCCOCCOCCNC(=S)Nc2ccc(-c3c4ccc(=O)cc-4oc4cc(O)ccc34)c(C(=O)O)c2)cc1 [Compound 5a] , reported Kd: 218

Memo: NS(=O)(=O)c1nnc(NC(=O)CCC(=O)NCCOCCOCCNC(=S)Nc2ccc(-c3c4ccc(=O)cc-4oc4cc(O)ccc34)c(C(=O)O)c2)s1 [Compound 1a] , reported Kd: 12.6

Memo: NS(=O)(=O)c1ccc(Nc2nc(Cl)nc(NCCOCCOCCNC(=S)Nc3ccc(-c4c5ccc(=O)cc-5oc5cc(O)ccc45)c(C(=O)O)c3)n2)cc1 [Compound 3a] , reported Kd: 46.8

Memo: CC(C)[C@@H](C(=O)NCCOCCOCCNC(=S)Nc1ccc(-c2c3ccc(=O)cc-3oc3cc(O)ccc23)c(C(=O)O)c1)n1cc(-c2ccc(S(N)(=O)=O)cc2)nn1 [Compound 2a] , reported Kd: 18.1

The reported numbers originate from patent US9884122B2.
